Target: GTPase KRas (Homo sapiens, UniProt P01116, G12D)
Sequence (P01116 whole entry G12D): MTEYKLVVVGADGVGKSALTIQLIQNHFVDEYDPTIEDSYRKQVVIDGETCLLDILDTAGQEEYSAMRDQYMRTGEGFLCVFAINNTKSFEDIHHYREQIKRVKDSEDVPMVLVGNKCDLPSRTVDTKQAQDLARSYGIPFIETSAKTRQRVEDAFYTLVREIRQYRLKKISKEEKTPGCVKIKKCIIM
Test: Binding affinity to K-Ras G12D mutant-GDP complex
Readout Kind: pKd
Lab note — pKd values are minus log10 of concentrations in M.

Ask: Given `CC[C@H](C)[C@H](N)C(=O)Nc1ccc2nc(Cc3c[nH]c4ccccc34)[nH]c2c1` , state its recorded pKd.
Result: 3.72

###

Biological target: GTPase NRas (Homo sapiens)
Sequence (P01111 whole entry): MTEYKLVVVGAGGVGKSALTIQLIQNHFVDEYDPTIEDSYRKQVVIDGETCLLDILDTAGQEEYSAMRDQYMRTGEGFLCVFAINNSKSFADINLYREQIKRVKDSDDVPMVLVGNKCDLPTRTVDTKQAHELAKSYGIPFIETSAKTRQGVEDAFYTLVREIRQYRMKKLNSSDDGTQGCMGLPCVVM
Readout Kind: pIC50
Conceptually, pIC50 converts a concentration in mol/L into minus its log10.

Ask: API: value(readout=pIC50, system=GTPase NRas (Homo sapiens)) for record `O=S(=O)(c1ccc(NO)cc1)N(CCOc1ccc2ccccc2c1)[C@@H]1O[C@H](CO)[C@@H](O)[C@H](O)[C@H]1O`
Result: 6.30

Entry source: ChEMBL document CHEMBL2086330
